Values from PubChem BioAssay

# experimentalSystem: Calmodulin-1 (Homo sapiens) (UniProt P0DP23)
# assayProcedure: CALM1 binders on microarrays, EGTA buffer, profiling panel, biochemical, small-molecule microarray, Cy5-labelled CALM1 (AID 1111);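 also: labelled calmodulin applied in Tris saline Tween buffer holding calcium plus EGTA and DTT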
# testParameters: Cy5-CALM1 binding fluorescence, higher = more signal
I'd be grateful if you could share measured composite z-score for these entries.
No unit in the answer, please; the number alone is enough.

Ask | Endpoint output: composite z-score of CC(C)N1C(=O)[C@@]2(Cc3ccccc31)c1ccccc1C(=O)N(Cc1ccccc1C(F)(F)F)[C@H]2c1ccc(CO)cc1 . Value?
Reply | -0.157

Ask | Endpoint output: composite z-score of COCCOC(=O)N1C(=O)[C@@]2(c3cc(C#CC4=CCCCC4)ccc31)[C@H](c1ccc(O)cc1)N1[C@H](c3ccccc3)[C@H](c3ccccc3)OC(=O)[C@H]1[C@@H]2C(=O)N1CCc2cc(OC)c(OC)cc2C1 . Value?
Reply | 1.12

Ask | Endpoint output: composite z-score of CCCCC(=C=CC[C@H](O)c1ccccc1OCCO)CCO . Value?
Reply | -0.541

Ask | Endpoint output: composite z-score of COc1ccc(CCNC(=O)[C@@H]2c3ccccc3C(=O)N(Cc3cc(F)cc(C(F)(F)F)c3)[C@H]2c2ccc(CO)cc2)cc1 . Value?
Reply | 1.05

Ask | Endpoint output: composite z-score of C[C@@]1([C@@H](NS(=O)(=O)c2cccc3cccnc23)c2ccc(-c3ccccc3)cc2)C[C@H]1C1CCCCC1 . Value?
Reply | 1.02

Ask | Endpoint output: composite z-score of CC(C)C[C@@H]1NC(=O)[C@@H]2C[C@H](C(=O)NCCCCCNC(=O)CS)[C@H](c3ccc(O)cc3)N2C1=O . Value?
Reply | 1.18

Ask | Endpoint output: composite z-score of C=CCOC(=O)[C@@H]1[C@H]2C(=O)O[C@H](c3ccccc3)[C@H](c3ccccc3)N2[C@H](c2ccc(OCCOC(=O)[C@H]3C[C@H]4C(=O)N[C@@H](CCCCN(C)C)C(=O)N4[C@H]3c3cccc(OCCO)c3)cc2)[C@@]12C(=O)Nc1ccccc12 . Value?
Reply | 0.12

Ask | Endpoint output: composite z-score of O=C(NCC(F)(F)F)[C@@H]1c2ccccc2C(=O)N(Cc2cc(C(F)(F)F)cc(C(F)(F)F)c2)[C@H]1c1ccc(CO)cc1 . Value?
Reply | -0.0722

Ask | Endpoint output: composite z-score of C=CCN1C(=O)[C@@]2(O[C@@H](CCO)[C@H]([Si](C)(C)c3ccc(OC)cc3)[C@H]2C)c2cc(N3CCCCC3=O)ccc21 . Value?
Reply | 0.721

Ask | Endpoint output: composite z-score of Cc1ccc(S[C@]2(C(=O)NC(C)C)CC(=O)N(Cc3ccccc3)[C@@H]2c2ccc(CO)cc2I)cc1 . Value?
Reply | 0.129

Ask | Endpoint output: composite z-score of O=C(c1ccccc1)N1Cc2ccccc2C[C@@]2(N=C(c3ccc(OCCCO)cc3)O[C@H]2c2ccccc2)C1=O . Value?
Reply | 2.64

Ask | Endpoint output: composite z-score of COc1cc(Cc2cc3c(c(-c4ccccc4)n2)[Si](C(C)C)(C(C)C)OC3)cc(OC)c1OC . Value?
Reply | -0.651

Ask | Endpoint output: composite z-score of CC(C)c1ccc(NN2C(C(O)C3=C[C@H]4C[C@@H](C3)C4(C)C)C=CC3C(=O)N(c4ccccc4)C(=O)C32)cc1 (stereo partly specified) . Value?
Reply | 2.46

Ask | Endpoint output: composite z-score of CCCC[C@@H](O)C1=C(C)Cn2c(=O)n(-c3ccccc3)c(=O)n2[C@H]1CO . Value?
Reply | -0.737

Ask | Endpoint output: composite z-score of C=CC[C@]12N=C(c3ccc(OCCCO)cc3)O[C@H]1c1ccccc1N(CCC)C2=O . Value?
Reply | 0.117

Ask | Endpoint output: composite z-score of COCCOC(=O)N1C(=O)[C@@]2(c3cc(C#CCNC(N)=O)ccc31)[C@H](C(=O)N1CCN(c3ncccn3)CC1)[C@H]1C(=O)O[C@H](c3ccccc3)[C@H](c3ccccc3)N1[C@@H]2c1ccc(O)cc1 . Value?
Reply | -0.777
